Origin of values: ChEMBL document CHEMBL5120821

# System: Shigella flexneri
# EXPERIMENT DESCRIPTION: Antibacterial activity against Shigella flexneris ATCC 12022 assessed as bacterial growth inhibition incubated for 18 hrs by microdilution method
# Assay type: functional
PROPERTY NAME: MIC

SMILES DATA	MIC
Cc1ccc2c(c1)CC[C@@H]1C(C)(C)[C@H](O)[C@H](O)C[C@@]21C	> 64 µg/mL
CC[C@H]1OC(=O)[C@H](C)[C@@H](O[C@H]2C[C@@](C)(OC)[C@@H](O)[C@H](C)O2)[C@H](C)[C@@H](O[C@@H]2O[C@H](C)C[C@H](N(C)C)[C@H]2O)[C@](C)(OC)C[C@@H](C)C(=O)[C@H](C)[C@@H](O)[C@]1(C)O	< 0.125 µg/mL
Cc1cc2c(cc1O)[C@]1(C)C[C@@H](O)[C@@H](O)C(C)(C)[C@H]1CC2=O	> 64 µg/mL
C=Cc1c(C)c(O)cc2c1CC[C@@H]1C(C)(C)[C@H](O)[C@H](O)C[C@@]21C	12 µg/mL
Cc1cc2c(cc1O)[C@]1(C)C[C@@H](O)[C@@H](O)C(C)(C)C1=CC2=O	> 64 µg/mL

Below are some compounds; for each one, tell me its MIC.
1. Cc1cc2c(cc1O)[C@]1(C)C[C@@H](O)[C@@H](O)C(C)(C)[C@H]1CC2
2. C=CC1=C(C)C(=O)C=C2[C@]1(O)CC[C@@H]1C(C)(C)[C@H](O)[C@H](O)C[C@@]21C
3. CC1=CC2=CC[C@@H]3C(C)(C)[C@H](O)[C@H](O)C[C@@]3(C)[C@@H]2CC1=O
4. C=Cc1ccc2c(c1)CC[C@@H]1C(C)(C)[C@H](O)[C@H](O)C[C@@]21C

1. 32 µg/mL
2. > 64 µg/mL
3. > 64 µg/mL
4. > 64 µg/mL

* * *

# Tested on: Escherichia coli
# EXPERIMENT DESCRIPTION: Antibacterial activity against Escherichia coli ATCC 25922 assessed as bacterial growth inhibition incubated for 18 hrs by microdilution method
# Assay type: functional
PROPERTY NAME: MIC

Before answering, review these 4 worked examples.
SMILES DATA	MEASUREMENT TARGET	MEASUREMENT
CC[C@H]1OC(=O)[C@H](C)[C@@H](O[C@H]2C[C@@](C)(OC)[C@@H](O)[C@H](C)O2)[C@H](C)[C@@H](O[C@@H]2O[C@H](C)C[C@H](N(C)C)[C@H]2O)[C@](C)(OC)C[C@@H](C)C(=O)[C@H](C)[C@@H](O)[C@]1(C)O	Escherichia coli	2 µg/mL
Cc1cc2c(cc1O)[C@]1(C)C[C@@H](O)[C@@H](O)C(C)(C)[C@H]1CC2=O	Escherichia coli	> 64 µg/mL
Cc1cc2c(cc1O)[C@]1(C)C[C@@H](O)[C@@H](O)C(C)(C)C1=CC2=O	Escherichia coli	> 64 µg/mL
C=Cc1ccc2c(c1)CC[C@@H]1C(C)(C)[C@H](O)[C@H](O)C[C@@]21C	Escherichia coli	> 64 µg/mL

--- query ---
Given item `C=Cc1c(C)c(O)cc2c1CC[C@@H]1C(C)(C)[C@H](O)[C@H](O)C[C@@]21C` , the value recorded as its MIC is > 64 µg/mL
